# measurement-description: Plasma protein binding by equilibrium dialysis, human
# Format: in vitro ADME
# stated-conditions: human, plasma, human plasma, equilibrium dialysis, 37° C., 6 hours; read-out: % Bound (converted)
measurement-name: fraction unbound at 6 h, 1 μM
Numbers only.

GET /values?readout=fraction unbound at 6 h, 1 μM&item= CC(=O)N1CCN(c2ccc(OCC3COC(Cn4ccnc4)(c4ccc(Cl)cc4Cl)O3)cc2)CC1 (stereo not shown) [Ketoconazole, reference compound]
0.0076

====

# system: human 5-hydroxytryptamine receptor 2A (5-HT2A) (Homo sapiens, UniProt P28223)
# Sequence (P28223 whole entry): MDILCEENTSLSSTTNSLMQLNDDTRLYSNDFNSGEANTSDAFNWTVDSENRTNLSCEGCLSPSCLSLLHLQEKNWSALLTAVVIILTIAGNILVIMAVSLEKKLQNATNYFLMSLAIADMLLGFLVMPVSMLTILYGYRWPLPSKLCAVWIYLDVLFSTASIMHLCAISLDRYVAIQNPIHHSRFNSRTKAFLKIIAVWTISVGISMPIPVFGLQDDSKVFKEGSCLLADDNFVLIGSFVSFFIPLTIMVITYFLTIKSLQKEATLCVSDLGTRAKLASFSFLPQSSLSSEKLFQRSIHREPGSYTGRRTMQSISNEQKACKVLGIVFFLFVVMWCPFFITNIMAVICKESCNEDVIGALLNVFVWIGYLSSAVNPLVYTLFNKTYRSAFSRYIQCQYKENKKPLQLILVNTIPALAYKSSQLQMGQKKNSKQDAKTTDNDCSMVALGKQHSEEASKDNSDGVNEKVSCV
# measurement-description: Human 5-HT2A functional FLIPR assay (agonist mode)
# Format: cell-based
# Set-up: expressed in transfected cells; host or cells: Flp-In-293 (HEK293)
# stated-conditions: normalized fluorescence reading (Fmax−Fmin) at 10 μM; curve fitting with activation (%)
Hi there, I'd appreciate the recorded RFU@10 μM for every entry that follows.

The examples below pair each entry with its known result.
# compound, RFU@10 μM
measured = [
    ("[2H]C([2H])(c1c[nH]c2ccc(OCCCCCN3C(=O)C4CCCCC4C3=O)cc12)[C@H]1CCCN1C([2H])([2H])[2H] (mixture of isomers) [Rac (R) I-248]", "8,240 RFU"),
    ("COCCN1CCC[C@@H]1Cc1c[nH]c2ccc(OC)cc12 [(R) I-98]", "8,298 RFU"),
    ("CN(C)CCc1c[nH]c2ccccc12", "3,493 RFU"),
    ("CSc1ccc2[nH]cc(C[C@H]3CCCN3C)c2c1 [(R) I-1]", "5,663 RFU"),
]

Value sought for every listed compound: RFU@10 μM.
1. [2H]C([2H])(c1c[nH]c2ccc(OCCCCCN3C(=O)c4ccccc4C3=O)cc12)[C@H]1CCCN1C([2H])([2H])[2H] [(R) I-245]
2. [2H]C([2H])(c1c[nH]c2ccc(OCCCCN3C(=O)c4ccccc4C3=O)cc12)[C@H]1CCCN1C([2H])([2H])[2H] [(R) I-244]

["8,322 RFU", "7,945 RFU"]
